# Tested on: NCI-H23 lung
# PROCEDURE_DETAILS: NCI tumour cell line growth inhibition, 48 h
Recorded TGI for the following molecules

C/C(=N/NC(=S)Nc1ccccc1)c1nc2ccc(Cl)cc2[nH]1 :: 1.52 µM
O=c1[nH]c(=O)n(COC(CO)CO)cc1-c1ccccc1 :: > 100 µM
N[C@@H](CCC(=O)NC(Cc1ccccc1)C(=O)NCP(=O)(O)O)C(=O)O (some centres not stated) :: > 100 µM

input: Could you please provide reported TGI for COc1cc(CCNC2=CC(=O)c3nc[nH]c3C2=O)ccc1O ? Thanks!
output: 48.6 µM

input: Report measured TGI; entry is O=c1c(Cc2ccc3c(c2)OCO3)nnc2sc(-c3cc(F)c(Cl)cc3Cl)nn12
output: > 100 µM

input: Please report the measured TGI for CCC[CH2][Sn-]([CH2]CCC)([CH2]CCC)[O]C(=O)C(C)C
output: 0.31 µM

input: Give reported TGI value for O=C(O)C(Cc1ccccc1)NCc1c(O)ccc2c(-c3ccccc3)cc(=O)oc12 (configuration not stated)
output: > 100 µM

input: Name the recorded TGI of the item CCCCNC(c1ccc(Cl)cc1)C(O)c1ccc(Cl)cc1 (configuration not stated) in your answer.
output: 7.59 µM

input: Please report TGI for the following molecule: CC(=O)N1[C@H](C(=O)O)CS[C@H]1c1ccc(F)cc1
output: > 100 µM

input: Supply reported TGI belonging to this molecule: O=[N+]([O-])c1ccc(-n2nc3ccc4nonc4c3n2)cc1
output: > 100 µM

input: Supply recorded TGI for CC(C)CCCC(C)[C@H]1CCC(C2C[C@@H](O)[C@@H]3CC(O)[C@@H](O)C[C@]3(CO)C2=O)[C@]1(C)CCO (some centres not stated) here.
output: > 90.5 µM

====

Measured TGI accompanies every entry in the list below.
# Tested on: NCI/ADR-RES ovarian
# PROCEDURE_DETAILS: NCI tumour cell line growth inhibition, 48 h

Solved cases (3 shown):
COC1CC(C)(NC(=O)C(F)(F)F)C2OC(c3ccccc3)OCC2O1 (configuration not stated) :: > 100 µM
O=C1c2ccccc2-c2nc3ccncc3n21 :: > 100 µM
O=P1(N(CCCl)CCCl)Oc2ccc(Cl)cc2C(C(Cl)(Cl)Cl)c2cc(Cl)ccc2O1 (configuration not stated) :: > 100 µM

input: Recall the reported TGI of Cc1nc(NC(C)(CO)CO)nc(N/N=C/c2ccc(Cl)cc2)c1C(=O)Nc1ccc(Cl)cc1 when tested on NCI/ADR-RES ovarian.
output: > 100 µM

input: Look up and report measured TGI (NCI/ADR-RES ovarian) for the following compound: COc1ccc2c(c1)C(=O)c1c-2c(OCCCN(C)C)nc2cc(Br)ccc12
output: 16.5 µM

input: # assay system NCI/ADR-RES ovarian: give TGI of CC(Nc1ccc(Cl)cc1)c1ccncc1 (configuration not stated)
output: > 100 µM

input: Print NCI/ADR-RES ovarian TGI for COc1cc2c(cc1C)NC(=O)/C2=C/c1ccnc2ccccc12 .
output: 41.2 µM

====

Collected TGI values appear next to each entry.
# System: MALME-3M melanoma
# PROCEDURE_DETAILS: NCI tumour cell line growth inhibition, 48 h

Reference set (3 entries):
COC(=O)[C@]1(c2cc3ccccc3n2S(=O)(=O)c2ccccc2)CC2CN(C(=O)OCc3ccccc3)C1C1OC(C)(C)OC21 (stereo not given in full) :: > 100 µM
CC(=O)C(=Cc1cn(C)c(=O)n(C)c1=O)C(C)=O :: 201 µM
c1ccc2c(c1)[nH]c1c2nc2ccccn21 :: > 100 µM

input: Fill in reported TGI for this entry: CC(C)C[C@@H](N)[C@@H](O)C(=O)N[C@H](C(=O)N[C@H](C(=O)N[C@@H](CC(=O)O)C(=O)O)C(C)C)C(C)C
output: > 20 µM

input: Supply TGI value. Item: CC(C)CCCC(C)[C@H]1CCC(C2C[C@@H](O)[C@@H]3CC(O)[C@@H](O)C[C@]3(CO)C2=O)[C@]1(C)CCO (stereo not given in full)
output: 44.8 µM

input: Retrieve TGI measured for O=C1c2cc3c(cc2-c2c1c1cc(F)c(F)cc1c(=O)n2CCCn1ccnc1)OCO3 and print it.
output: 1.21 µM

input: Please give measured TGI of the following entry: C/C(=C1\N=C(c2ccccc2)OC1=O)c1ccccc1
output: > 100 µM

input: Using known records, supply TGI for COc1cc(O)ccc1C(=S)SC
output: > 100 µM

input: Please list TGI recorded for the compound Clc1ccccc1C(Nc1cnccn1)Nc1cnccn1
output: > 100 µM

input: Input O=C(O)C(Cc1ccccc1)NCc1c(O)ccc2c(-c3ccccc3)cc(=O)oc12 (stereo not given) , output reported TGI.
output: > 100 µM

====

# Tested on: M14 melanoma
# PROCEDURE_DETAILS: NCI tumour cell line growth inhibition, 48 h
VALUE_TYPE: TGI

Below, each entry is followed by its recorded TGI result.
C=C(Br)CN=CN(C)C :: > 100 µM
O=c1[nH]c(=O)n(COC(CO)CO)cc1-c1ccccc1 :: > 100 µM
O=C(Nc1ccccc1)N1CCN(C(=O)Nc2ccccc2)C1=S :: > 100 µM
CCOC(=O)c1c(N)sc2c1C(C(=O)OCC)CCCC2 (stereo unspecified) :: > 100 µM
N=C1CCCC1C(=S)SCCC(N)=O (stereo unspecified) :: > 100 µM
CC(C)(CO[C@H]1C[C@H]2CC[C@@]1(C)C2(C)C)[N+](=O)[O-] :: 27.1 µM
O=c1[nH]c(C2CCCN2)nc2c1oc1ccc(Cl)cc12 (stereo unspecified) :: > 100 µM
CC(C)(C)C[C@H]1N[C@@H](C(=O)NC2CCC(O)CC2)[C@H](c2cccc(Cl)c2F)[C@@]12C(=O)Nc1cc(Cl)ccc12 (stereo partly specified) :: 17.3 µM
N#CCCC(C=O)(CCC#N)CCC#N :: > 100 µM
O=c1c2cc(Br)cc(Br)c2[nH]c(=S)n1-c1ccc(N=Nc2ccc(O)c3cccnc23)cc1 :: > 100 µM

input: Give the measured TGI for Cn1c(COC(=O)NCCn2ccnc2)nc2c(N3CCOCC3)nc(-c3ccccc3)nc21
output: 1.92 µM

input: Name the recorded TGI of the item COc1ccc2c(c1)C(=O)c1c-2c(OCCCN(C)C)nc2cc(Br)ccc12 in your answer.
output: 29 µM

input: Given O=c1c2cccnc2ncn1CCCN1CCCCC1 , respond with its TGI.
output: > 100 µM

input: Check the records and state TGI for Clc1ccc2c(c1)N(CCCN1CCCC13CCCCC3)c1ccccc1S2
output: 27.3 µM

input: Tell me measured TGI for Cc1cn(CCCCCCOC(=O)NC(CCCNC(N)=O)C(=O)O)c(=O)[nH]c1=O (stereo unspecified) please.
output: > 100 µM

input: Check the records and state TGI for N#C/C(=C\c1ccc2[nH]ccc2c1)C(=O)NCCCCNC(=O)/C(C#N)=C/c1ccc2[nH]ccc2c1
output: > 31.6 µM

input: Supply reported TGI belonging to this molecule: Cn1c(=O)c2c(nc3[nH]c(=O)c(Br)cn32)n(C)c1=O
output: > 100 µM

input: Please give the documented TGI of N/N=C(/Cc1ccccc1)NNO
output: > 100 µM

====

Recorded TGI values for a group of compounds are listed next.
# Tested on: DU-145 prostate
# PROCEDURE_DETAILS: NCI tumour cell line growth inhibition, 48 h

# count of solved cases: 6
C/C(=C1\N=C(c2ccccc2)OC1=O)c1ccccc1 :: > 100 µM
O=[N+]([O-])c1ccc(-n2nc3ccc4nonc4c3n2)cc1 :: > 100 µM
O=CCCCCCOCc1ccccc1 :: > 100 µM
C=C1CCC[C@@H](C)C(O)[C@@H]2OC(=O)C(=C)[C@@H]2C[C@@H](OC(C)=O)[C@@]2(C)CC[C@@H]1O2 (stereo not given in full) :: 14.3 µM
COc1cc2c(cc1C)NC(=O)/C2=C/c1ccnc2ccccc12 :: > 50 µM
C=C(NC(=O)C(=C)NC(=O)c1ccc2c(n1)-c1coc(n1)C(=C)NC(=O)C(=C)NC(=O)c1nc(oc1C)C(=C)NC(=O)C(C(C)(C)O)NC(=O)C(=C)NC(=O)c1coc(n1)/C(=C/C)NC(=O)[C@H]([C@@H](C)O)NC(=O)c1csc-2n1)C(N)=O (stereo not given in full) :: > 87.5 µM

input: Provide one value: measured TGI of COc1cc2c(/C=C3/C(=O)Nc4ccccc43)c(Cl)n(Cc3ccc(Cl)cc3)c2cc1C
output: 1.07 µM

input: State its TGI for this compound: O=C1NC(O)c2cc3ccccc3cc2O1 (stereo not given)
output: > 100 µM

input: Complete the entry with TGI for CCOC(=O)c1cc(-c2ccc(OC)cc2)c([N+](=O)[O-])[nH]1
output: > 10 µM

input: Item CCCCCCCC/C=C/CCCCCCCC1=NC(C)(C)CN1C(C)(C)CO : provide TGI
output: 3.32 µM

input: Quote TGI reported for CC(Nc1ccc(Cl)cc1)c1ccncc1 (stereo not given) please.
output: > 100 µM

input: Given COc1cc2c(cc1O)C1Cc3ccc(OC)c(O)c3C[N+]1(C)CC2 (stereo not given) , respond with its TGI.
output: > 100 µM

Values were extracted from PubChem BioAssay (NCI).
